Recorded ECL signal values for a group of binders are listed next.
target: T1, rHuman ErbB2/Fc Chimera, CF (human, UniProt P04626 23-652); test: ECL Multispot (MSD) assay; antigen spotted on plate, Fab in solution;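 note: fab bound 1 h at 20 °C, detected by TAG-labelled antibody electrochemiluminescence, signal relative to each well's blank, ratio of 4 or more marks a hit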
T1 construct: Bought from R&D Systems; also called human epidermal growth factor 2 receptor; not shown: Fc of the bought chimera

Binder | ECL signal
Fab VH1-46_IGHD6-6*01_IGHJ1*01 S102A/S103P/S104F/H111F (APFF) & L6_IGKJ1*01 S28T (Fab, V domains shown, Fab made in E. coli; the variable domains were cloned into Plasmid A (CH1, His and Flag tags) and Plasmid C (kappa CL); also called APFF / S28T) VH: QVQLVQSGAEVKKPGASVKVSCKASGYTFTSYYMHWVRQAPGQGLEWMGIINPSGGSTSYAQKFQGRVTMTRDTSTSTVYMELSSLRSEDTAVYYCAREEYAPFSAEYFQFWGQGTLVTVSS VL: EIVLTQSPATLSLSPGERATLSCRASQTVSSYLAWYQQKPGQAPRLLIYDASNRATGIPARFSGSGSGTDFTLTISSLEPEDFAVYYCQQRSNWPPWTFGQGTKVEIKR | 271
Fab VH1-46_IGHD6-6*01_IGHJ1*01 S102A/S103P/S104F/H111F (APFF) & L6_IGKJ1*01 S28Q (Fab, V domains shown, Fab made in E. coli; the variable domains were cloned into Plasmid A (CH1, His and Flag tags) and Plasmid C (kappa CL); also called APFF / S28Q) VH: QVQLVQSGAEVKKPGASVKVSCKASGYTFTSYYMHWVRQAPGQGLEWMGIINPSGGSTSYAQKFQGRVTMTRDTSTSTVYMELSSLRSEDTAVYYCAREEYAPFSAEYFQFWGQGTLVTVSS VL: EIVLTQSPATLSLSPGERATLSCRASQQVSSYLAWYQQKPGQAPRLLIYDASNRATGIPARFSGSGSGTDFTLTISSLEPEDFAVYYCQQRSNWPPWTFGQGTKVEIKR | 345
Fab VH1-46_IGHD6-6*01_IGHJ1*01 S102A/S103P/S104F/H111F (APFF) & L6_IGKJ1*01 S28G (Fab, V domains shown, Fab made in E. coli; the variable domains were cloned into Plasmid A (CH1, His and Flag tags) and Plasmid C (kappa CL); also called APFF / S28G) VH: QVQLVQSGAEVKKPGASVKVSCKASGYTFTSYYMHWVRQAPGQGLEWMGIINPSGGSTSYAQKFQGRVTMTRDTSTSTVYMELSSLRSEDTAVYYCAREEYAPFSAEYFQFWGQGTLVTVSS VL: EIVLTQSPATLSLSPGERATLSCRASQGVSSYLAWYQQKPGQAPRLLIYDASNRATGIPARFSGSGSGTDFTLTISSLEPEDFAVYYCQQRSNWPPWTFGQGTKVEIKR | 334
